assayed_system: NS3-NS4A protein A156T (Hepatitis C virus genotype 1b, UniProt Q9WMX2, A1182T)
Construct: TEV protease cleavage site (N); made in house; host or cells: E. coli (pET11a)
Sequence (Q9WMX2 1027-1657 A1182T): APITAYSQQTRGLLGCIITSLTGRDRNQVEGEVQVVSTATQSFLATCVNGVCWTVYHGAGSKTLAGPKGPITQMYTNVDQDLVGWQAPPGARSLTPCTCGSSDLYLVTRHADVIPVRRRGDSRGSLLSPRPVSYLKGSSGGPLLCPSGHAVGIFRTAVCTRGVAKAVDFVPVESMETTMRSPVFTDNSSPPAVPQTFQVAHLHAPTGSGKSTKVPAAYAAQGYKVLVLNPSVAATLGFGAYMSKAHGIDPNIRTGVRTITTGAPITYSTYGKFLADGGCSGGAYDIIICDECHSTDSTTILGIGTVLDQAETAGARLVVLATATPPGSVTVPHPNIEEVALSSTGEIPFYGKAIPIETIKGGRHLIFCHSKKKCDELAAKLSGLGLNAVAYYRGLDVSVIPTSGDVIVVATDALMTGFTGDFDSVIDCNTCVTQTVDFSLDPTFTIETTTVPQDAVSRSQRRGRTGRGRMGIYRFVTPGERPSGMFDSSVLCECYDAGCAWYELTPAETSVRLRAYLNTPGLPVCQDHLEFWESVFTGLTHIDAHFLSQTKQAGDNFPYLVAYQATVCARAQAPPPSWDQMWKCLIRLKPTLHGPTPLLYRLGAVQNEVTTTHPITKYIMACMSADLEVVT
Sequence (Q9WMX2 1658-1711 partner limits assumed): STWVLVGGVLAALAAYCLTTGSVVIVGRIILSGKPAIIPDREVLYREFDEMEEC
method: In vitro enzyme assay, Ki, full length NS3/NS4A protein A156T
Format: biochemical, HCV genotype 1b
conditions_used: calculated Ki from IC50, read-out: Ki, A156T (calculated Ki from IC50)
property_measured: Ki (nM)
Give the number; nM is assumed, so skip it.

Reported Ki ( COc1ccc2c(O[C@@H]3C[C@H]4C(=O)N[C@]5(C(=O)O)C[C@H]5/C=C\CCCCC[C@H](NC(=O)OC5CCCC5)C(=O)N4C3)cc(-c3csc(NC(C)C)n3)nc2c1 ) = 870

Value source: patent US7208309B2
